Structures can show the parent of a compound that is named as a salt.
Quick reference for melting point among some molecules
METRIC NAME: melting point

>  <MOLECULE>
C[C@H](NC(=O)c1c(CN2CCC(N3CCCCC3)CC2)c(-c2ccc(C(F)(F)F)cc2)nc2ccccc12)C1CCCCC1 [Example 30]

>  <RECORDED MEASUREMENT>
138 to 140 °C

$$$$
>  <MOLECULE>
C[C@H](NC(=O)c1c(CN2CCC(N3CCCCC3)CC2)c(-c2ccccc2)nc2cc(Cl)ccc12)C1CCCCC1 [Example 24]

>  <RECORDED MEASUREMENT>
152 to 154 °C

$$$$
>  <MOLECULE>
CCOC(=O)C1CCCN(C2CCN(Cc3c(-c4ccccc4)nc4ccccc4c3C(=O)N[C@@H](C)C3CCCCC3)CC2)C1 (some centres unmarked) [Example 13]

>  <RECORDED MEASUREMENT>
104 to 105 °C

$$$$
>  <MOLECULE>
C[C@H](NC(=O)c1c(CN2CCC(N3CCCCC3)CC2)c(-c2ccc(F)cc2)nc2ccccc12)C1CCCCC1 [Example 29]

>  <RECORDED MEASUREMENT>
151 to 153 °C

$$$$
>  <MOLECULE>
C[C@H](NC(=O)c1c(CN2CCC(N3CCCC(C(=O)O)C3)CC2)c(-c2ccccc2)nc2ccccc12)C1CCCCC1 (some centres unmarked) [Example 14]

>  <RECORDED MEASUREMENT>
160 to 165 °C

$$$$
>  <MOLECULE>
C[C@H](NC(=O)c1c(CN2CCC(N)CC2)c(-c2ccccc2)nc2ccccc12)C1CCCCC1 [Example 6]

>  <RECORDED MEASUREMENT>
140 to 145 °C

$$$$
>  <MOLECULE>
CC(C)[C@H](NC(=O)c1c(CN2CCC(N3CCCCC3)CC2)c(-c2ccccc2)nc2cc(O)ccc12)c1ccccc1 [Example 21]

>  <RECORDED MEASUREMENT>
200 to 204 °C (dec.)

$$$$
>  <MOLECULE>
CC[C@H](NC(=O)c1c(CN2CCC(N3CCCCC3)CC2)c(-c2ccccc2)nc2cc(OCC(=O)O)ccc12)c1ccccc1 (as salt: hydrochloride) [Example 17, Dihydrochloride]

>  <RECORDED MEASUREMENT>
196 °C (dec.)

$$$$
>  <MOLECULE>
C[C@H](NC(=O)c1c(CN2CCC(N3CCCCC3)CC2)c(-c2ccccc2)nc2ccc(F)cc12)C1CCCCC1 [Example 28]

>  <RECORDED MEASUREMENT>
174 to 175 °C

$$$$
>  <MOLECULE>
COc1ccc2c(C(=O)N[C@H](c3ccccc3)C(C)C)c(CN3CCC(N4CCCCC4)CC3)c(-c3ccccc3)nc2c1 [Example 22]

>  <RECORDED MEASUREMENT>
113 to 116 °C

$$$$
>  <MOLECULE>
C[C@H](NC(=O)c1c(CN2CCC(N)CC2)c(-c2ccccc2)nc2ccccc12)c1ccccc1 [Example 7]

>  <RECORDED MEASUREMENT>
118 to 119 °C

$$$$
>  <MOLECULE>
CC[C@H](NC(=O)c1c(CN2CCC(N3CCCCC3)CC2)c(-c2ccccc2)nc2cc(OCCO)ccc12)c1ccccc1 [Example 19]

>  <RECORDED MEASUREMENT>
118 to 122 °C

$$$$
>  <MOLECULE>
C[C@H](NC(=O)c1c(CN2CCC(N3CCCCC3)CC2)c(-c2ccccc2)nc2cc(O)ccc12)C1CCCCC1 [Example 15]

>  <RECORDED MEASUREMENT>
177.9 to 178 °C

$$$$
>  <MOLECULE>
C[C@H](NC(=O)c1c(CN2CCC(N3CCCCC3)CC2)c(-c2cccs2)nc2ccccc12)C1CCCCC1 [Example 27]

>  <RECORDED MEASUREMENT>
165 to 166 °C

$$$$
